tgt: GluN2B-containing NMDA receptors (Homo sapiens, UniProt Q13224)
Sequence (Q13224 27-1484, other chains not shown): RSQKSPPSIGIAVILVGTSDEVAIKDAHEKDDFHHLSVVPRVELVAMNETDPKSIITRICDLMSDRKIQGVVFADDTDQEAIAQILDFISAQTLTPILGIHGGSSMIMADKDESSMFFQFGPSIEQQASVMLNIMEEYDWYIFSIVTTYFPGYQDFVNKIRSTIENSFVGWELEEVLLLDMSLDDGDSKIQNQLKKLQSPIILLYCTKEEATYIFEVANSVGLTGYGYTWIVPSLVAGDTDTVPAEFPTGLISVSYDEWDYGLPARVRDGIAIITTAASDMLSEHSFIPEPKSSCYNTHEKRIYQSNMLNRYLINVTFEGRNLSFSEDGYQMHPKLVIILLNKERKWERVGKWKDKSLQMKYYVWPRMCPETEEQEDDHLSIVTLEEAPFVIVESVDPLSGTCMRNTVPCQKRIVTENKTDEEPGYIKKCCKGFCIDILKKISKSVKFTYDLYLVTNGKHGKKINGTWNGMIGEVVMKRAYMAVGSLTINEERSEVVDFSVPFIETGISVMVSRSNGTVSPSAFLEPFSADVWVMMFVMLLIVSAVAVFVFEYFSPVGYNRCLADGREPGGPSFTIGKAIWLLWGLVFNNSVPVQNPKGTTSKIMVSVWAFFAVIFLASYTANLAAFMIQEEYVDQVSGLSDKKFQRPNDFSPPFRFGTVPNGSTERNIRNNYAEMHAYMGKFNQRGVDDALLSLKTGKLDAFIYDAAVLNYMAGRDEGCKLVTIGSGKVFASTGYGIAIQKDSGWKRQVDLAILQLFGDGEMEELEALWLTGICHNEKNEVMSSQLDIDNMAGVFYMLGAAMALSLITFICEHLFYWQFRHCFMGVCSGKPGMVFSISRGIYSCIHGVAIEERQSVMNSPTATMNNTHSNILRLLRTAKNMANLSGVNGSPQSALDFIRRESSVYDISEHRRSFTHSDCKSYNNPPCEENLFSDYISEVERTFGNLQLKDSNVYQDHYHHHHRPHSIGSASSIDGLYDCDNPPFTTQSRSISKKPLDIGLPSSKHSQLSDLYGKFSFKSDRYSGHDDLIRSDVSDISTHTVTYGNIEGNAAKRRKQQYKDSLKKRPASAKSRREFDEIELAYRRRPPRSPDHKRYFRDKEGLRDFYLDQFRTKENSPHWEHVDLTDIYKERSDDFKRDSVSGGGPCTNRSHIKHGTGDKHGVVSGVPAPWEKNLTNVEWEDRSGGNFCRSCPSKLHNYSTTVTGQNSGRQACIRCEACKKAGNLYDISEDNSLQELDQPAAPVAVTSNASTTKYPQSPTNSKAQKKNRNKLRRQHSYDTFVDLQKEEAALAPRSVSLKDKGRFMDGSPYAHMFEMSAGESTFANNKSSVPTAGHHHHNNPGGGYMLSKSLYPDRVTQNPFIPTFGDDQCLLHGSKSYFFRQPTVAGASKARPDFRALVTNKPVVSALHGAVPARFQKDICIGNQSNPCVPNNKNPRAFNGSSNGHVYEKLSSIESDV
assay method text: Two-electrode voltage-clamp recordings from Xenopus laevis oocytes, GluN2B
Assay type: cell-based
conditions: 10 μM test compound with glutamate 100 μM and glycine 30 μM; percent of response without compound; Tables 1-5
assay readout: I10 μM/ICONTROL (mean ± SEM, %) Glu N2B

Examples with answers:
// I10 μM/ICONTROL (mean ± SEM, %) Glu N2B lookup, key: Cc1sc2ncn(CC(=O)N3CCCC3)c(=O)c2c1-c1ccccc1
115

Moving on to the next molecule: Cc1sc2ncn(Cc3cn(CCC4OCCCO4)nn3)c(=O)c2c1-c1cccc(Cl)c1
89

Moving on to the next molecule: Cc1sc2ncn(CC(=O)N3CCCC3)c(=O)c2c1-c1cc(C(F)(F)F)cc(C(F)(F)F)c1
101

Moving on to the next molecule: Cc1sc2ncn(CC(=O)N3CCC[C@H]3C(=O)O)c(=O)c2c1-c1ccc(Cl)cc1 [1 / 4-Cl—Ph / Me / —Nproline (S)]
89

Moving on to the next molecule: Cc1sc2ncn(CC(=O)N3CCCC3)c(=O)c2c1-c1ccc(N)cc1
104

a. Cc1sc2ncn(CCC(=O)N3CCCC3)c(=O)c2c1-c1cccc(Cl)c1
b. Cc1sc2ncn(CC(=O)N3CCCC3)c(=O)c2c1-c1cccc(I)c1
c. Cc1sc2ncn(CC(=O)N3CCCC3)c(=O)c2c1-c1cccc(Cl)c1
Endpoint returns the given molecules ordered by ascending I10 μM/ICONTROL (mean ± SEM, %) Glu N2B. Answer with the labels in sequence, matching the requested order.
a, c, b
(a: 95%, c: 170%, b: 246%)

a. C#CCn1cnc2sc(C)c(-c3cccc(Cl)c3)c2c1=O
b. Cc1sc2ncn(CC(=O)N3CCCC3)c(=O)c2c1-c1cccc(Br)c1
Form: Entry with minimum I10 μM/ICONTROL (mean ± SEM, %) Glu N2B (choose one): a / b # answer = label of selected item
a
(a: 116%, b: 172%)
